assay: absolute recovery over mixed-bed multilayer solid-phase extraction; higher = better recovery; conditions: wastewater influent; enrichment method: SPE
In this section, each of the compounds is paired with its reported absolute recovery.
Use % as the unit, but write only the number.

>>> test_result("O=[N+]([O-])N=C1NCCN1Cc1ccc(Cl)nc1 [Imidacloprid]")
91.9

Prompt: Quote absolute recovery reported for CC(COc1ccccc1Cc1ccccc1)[NH+]1CCCCC1 (centres undefined) [Benproperine] please.
Response: 70.7

Prompt: Quote absolute recovery reported for CCC1OC(=O)C(C)C(OC2CC(C)(OC)C(O)C(C)O2)C(C)C(OC2OC(C)CC([NH+](C)C)C2O)C(C)(OC)CC(C)C(=O)C(C)C(O)C1(C)O (centres undefined) [Clarithromycin] please.
Response: 85.1

Prompt: Quote absolute recovery reported for CCc1cccc(C)c1N(C(=O)C(=O)[O-])C(C)COC (centres undefined) [Metolachlor-OXA] please.
Response: 97.3

----------
In this section, each of the molecules is paired with its reported absolute recovery.
experiment: absolute recovery over mixed-bed multilayer solid-phase extraction; higher = better recovery; conditions: wastewater influent; enrichment method: SPE
# number then unit; no other words

Known absolute recovery results, listed for orientation:
>>> test_result("CC(Oc1ccc(Oc2ccc(C(F)(F)F)cn2)cc1)C(=O)[O-] (stereo not given) [Fluazifop]")
"98%"
>>> test_result("CC(=O)Nc1ccc(S(=O)(=O)[N-]c2ncccn2)cc1 [N4-Acetyl-Sulfadiazin]")
"92.8%"

Prompt: Quote absolute recovery reported for CC(=O)Nc1c(I)c(C(=O)[O-])c(I)c(C(=O)NCCO)c1I [Ioxitalamic-acid] please.
Response: 61.4%

Prompt: Quote absolute recovery reported for COc1ccc2c(c1)C13CCCCC1C(C2)[NH+](C)CC3 (stereo not given) [Dextromethorphan] please.
Response: 77.6%

Prompt: Quote absolute recovery reported for COC(=O)C(C)N(C(=O)Cc1ccccc1)c1c(C)cccc1C (stereo not given) [Benalaxyl] please.
Response: 105%

----------
In this section, each of the compounds is paired with its reported absolute recovery.
assay: absolute recovery over mixed-bed multilayer solid-phase extraction; higher = better recovery; details: wastewater influent; enrichment method: SPE
Use % as the unit, but write only the number.

Known absolute recovery results, listed for orientation:
>>> test_result("O=c1c(-c2ccc(O)cc2)coc2cc([O-])cc(O)c12")
93.3
>>> test_result("CCOC(=O)C1CC(=O)C(=C([O-])C2CC2)C(=O)C1 (stereo not given)")
93.2
>>> test_result("Oc1cc(Cl)ccc1Oc1ccc(Cl)cc1Cl")
92.3
>>> test_result("Nc1ccc(S(=O)(=O)[O-])cc1")
6.4
>>> test_result("C[NH2+]CC(c1ccc(OC)cc1)C1(O)CCCCC1 (stereo not given)")
85.7

Prompt: Quote absolute recovery reported for c1ccc2c(c1)Cc1ccccc1N1CC[NH2+]CC21 (stereo not given) please.
Response: 85.6

Prompt: Quote absolute recovery reported for C[NH+](C)CCOC(C)(c1ccccc1)c1ccccn1 (stereo not given) please.
Response: 85

----------
assay: absolute recovery over mixed-bed multilayer solid-phase extraction; higher = better recovery; details: surface water; enrichment method: SPE
In this section, each of the compounds is paired with its reported absolute recovery.
Use % as the unit, but write only the number.

Known absolute recovery results, listed for orientation:
>>> test_result("CC(C)[NH2+]CC(O)COc1ccc(CC(=O)[O-])cc1 (centres undefined)")
98.9
>>> test_result("N#Cc1c[nH]cc1-c1cccc2c1OC(F)(F)O2")
108

Prompt: Quote absolute recovery reported for Nc1cnn(-c2ccccc2)c(=O)c1Cl please.
Response: 98.1

Prompt: Quote absolute recovery reported for CC[NH+](CC)CCNC(=O)c1cc(Cl)c(N)cc1OC please.
Response: 90

Prompt: Quote absolute recovery reported for CC1(C)CC(O)CC(C)(C)[NH+]1CCO [4-Hydroxy-1-(2-hydroxyethyl)-2-2-6-6-tetramethylpiperidine] please.
Response: 61.7

Prompt: Quote absolute recovery reported for CCc1cccc(C)c1N(C(=O)CCl)C(C)COC (centres undefined) please.
Response: 93

Prompt: Quote absolute recovery reported for CNC(=C[N+](=O)[O-])NCCS(=O)Cc1ccc(C[NH+](C)C)o1 (centres undefined) please.
Response: 74.2

Prompt: Quote absolute recovery reported for N#Cc1nn(-c2c(Cl)cc(C(F)(F)F)cc2Cl)c(N)c1SC(F)(F)F please.
Response: 107

Prompt: Quote absolute recovery reported for CON=C(C(=O)[O-])c1ccccc1COc1ccccc1C please.
Response: 71.8

All values here come from the supplement of paper PMC6470124.
